Molecular target: T1, human Chemokine like receptor 1 (human, UniProt Q99788 1-373)
T1 sequence (looked up): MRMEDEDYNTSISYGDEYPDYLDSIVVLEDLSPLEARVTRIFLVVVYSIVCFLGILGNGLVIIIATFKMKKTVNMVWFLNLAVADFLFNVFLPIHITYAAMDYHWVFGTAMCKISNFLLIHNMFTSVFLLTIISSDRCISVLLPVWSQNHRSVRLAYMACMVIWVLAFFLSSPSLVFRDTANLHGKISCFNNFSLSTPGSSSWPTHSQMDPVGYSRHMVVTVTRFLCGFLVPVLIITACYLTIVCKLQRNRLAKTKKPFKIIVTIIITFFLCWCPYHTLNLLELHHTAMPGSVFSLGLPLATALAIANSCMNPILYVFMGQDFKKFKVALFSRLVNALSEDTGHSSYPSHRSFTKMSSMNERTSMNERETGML
Experiment: cell-based or functional assay
Square brackets hold non-standard residues; d marks the D form. Ends that are not written are not given here. * marks the point of attachment. Hydrocinnamoyl = O=C(CCc1ccccc1)*; Tic = O=C(O)[C@@H]1Cc2ccccc2CN1; NMeL = CN[C@@H](CC(C)C)C(=O)O; dTi1c = not defined here
So I've got a bunch of binders here, and I need their EC50 (µM), activation of Tango CMKLR1-bla U2OS cells values.
In your response, the unit should come after the numeric value.

As a guide, the following entries are already answered.
- BINDER: "[dY]F[NMeL]P[dS]QF[dA][dTi1c]S-OH (reading uncertain; also: printed as (D-Tyr)-Phe-(NMe-Leu)-Pro-(D-Ser)-Gln-Phe-(D-Ala)-(D-Ti1c)-Ser) [YW-153]"
  ASSAY_RESULT: "0.0085 µM"
- BINDER: "Hydrocinnamoyl-[dY]F[NMeL]P[dS]QF[dA][Tic]S-NH2 (SMILES CC(C)C[C@@H](C(=O)N1CCC[C@H]1C(=O)N[C@H](CO)C(=O)N[C@@H](CCC(N)=O)C(=O)N[C@@H](Cc1ccccc1)C(=O)N[C@H](C)C(=O)N1Cc2ccccc2C[C@H]1C(=O)N[C@@H](CO)C(N)=O)N(C)C(=O)[C@H](Cc1ccccc1)NC(=O)[C@@H](Cc1ccc(O)cc1)NC(=O)CCc1ccccc1) [YW-161]"
  ASSAY_RESULT: "0.003 µM"

For the next question, use this binder.
// EC50 (µM), activation of Tango CMKLR1-bla U2OS cells value for {4‑phenylbutanoyl}-[dY]FLP[dS]QF[dA][Tic]S-OH [YW-75] : 0.05 µM

Values were extracted from patent US20210403506A1.
